target: cloned human GLP-1 receptor (Homo sapiens)
procedure summary: Functional cell-based assay: cAMP functional assay
Here the recorded pEC50 is given for each entry.
To interpret pEC50, take it as minus log10 of a concentration measured in moles per litre.

Worked cases, answers included:
compound	parameter	test value
N#Cc1ccc(-c2ccc(C[C@H](NC(=O)[C@@H]3Cc4cc5c(cc4CN3C(=O)c3cccs3)OC(c3ccc(OCc4cnc(Cl)c(Cl)c4)cc3)C(=O)N5)C(=O)O)cc2)cc1 (some centres unmarked)	pEC50	6.02
N#Cc1ccc(-c2ccc(C[C@H](NC(=O)[C@@H]3Cc4cc5c(cc4CN3C(=O)c3ccccc3)OC(c3ccc(OCc4c(Cl)cccc4Cl)cc3)C(=O)N5)C(=O)O)cc2)cc1 (some centres unmarked)	pEC50	6.24
N#Cc1ccc(-c2ccc(C[C@H](NC(=O)[C@@H]3Cc4cc5c(cc4CN3C(=O)N3CCCCC3)OC(c3ccc(OCc4ccc(Cl)c(Cl)c4)cc3)C(=O)N5)C(=O)O)cc2)cc1 (some centres unmarked)	pEC50	6.16
N#Cc1ccc(-c2ccc(C[C@H](NC(=O)[C@@H]3Cc4cc5c(cc4CN3C(=O)c3ccccc3)OC(c3ccc(OCc4cnc(Cl)c(Cl)c4)cc3)C(=O)N5)C(=O)O)cc2)cc1 (some centres unmarked)	pEC50	6.72

# next compound below
Give me measured pEC50, please, for this compound: N#Cc1ccc(-c2ccc(C[C@H](NC(=O)[C@@H]3Cc4cc5c(cc4CN3C(=O)c3ccc(F)cc3)OC(c3ccc(OCc4ccc(Cl)c(Cl)c4)cc3)C(=O)N5)C(=O)O)cc2)cc1 (some centres unmarked) 6.05

----------
target: cloned human GLP-1 receptor (Homo sapiens, UniProt P43220)
Construct: expressed in transfected cells; host or cells: CHO or HEK-293 cells
Sequence (P43220 24-463): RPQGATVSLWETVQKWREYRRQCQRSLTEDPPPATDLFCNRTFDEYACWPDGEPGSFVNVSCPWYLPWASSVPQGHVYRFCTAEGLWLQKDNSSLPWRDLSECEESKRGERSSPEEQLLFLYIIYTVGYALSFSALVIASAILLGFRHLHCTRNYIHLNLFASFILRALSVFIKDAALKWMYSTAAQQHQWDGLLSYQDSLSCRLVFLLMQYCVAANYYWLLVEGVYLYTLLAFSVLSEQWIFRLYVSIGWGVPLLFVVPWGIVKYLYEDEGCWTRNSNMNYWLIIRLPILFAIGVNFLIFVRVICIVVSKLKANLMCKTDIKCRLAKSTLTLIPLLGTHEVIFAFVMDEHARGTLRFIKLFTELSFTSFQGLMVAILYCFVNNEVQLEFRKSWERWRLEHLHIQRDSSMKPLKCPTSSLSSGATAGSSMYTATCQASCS
procedure summary: Functional cell-based assay: cAMP functional assay
cond: 0.5 h; percentage relative to maximal GLP-1-induced cAMP accumulation; na = not active in the assay; read-out: % activation
Protocol: Following overnight incubation of cells, media was removed, and compounds (at concentrations ranging from 0.0001 to 100 μM) were added to monolayer cells in Iscove's modified dulbecco's medium (IMDM), 100 μM RO 20-1724 PDE inhibitor, 0.1% BSA, 2% DMSO in a final volume of 100 μL, and incubated for 30 min at 37° C. 95% O2, 5% CO2 in a humidified incubator. cAMP was quantitated using a homogenous time-resolved fluorescence detection system (cAMP dynamic, CIS bio International).
Listed here are compounds together with their documented Emax.
Please give a number only; it is taken to be in %.

Name the recorded Emax of the item COc1ccccc1CN1Cc2cc3c(cc2C[C@H]1C(=O)N[C@@H](Cc1ccc(-c2ccc(C#N)cc2)cc1)C(=O)O)NC(=O)C(c1ccc(OCc2ccc(Cl)c(Cl)c2)cc1)O3 (some centres unmarked) in your answer. 34

Answer with the recorded Emax of Cc1ccccc1CN1Cc2cc3c(cc2C[C@H]1C(=O)N[C@@H](Cc1ccc(-c2ccc(C#N)cc2)cc1)C(=O)O)NC(=O)C(c1ccc(OCc2ccc(Cl)c(Cl)c2)cc1)O3 (some centres unmarked) only. 32

Item CC[C@@H](c1ccccc1)N1Cc2cc3c(cc2C[C@H]1C(=O)N[C@@H](Cc1ccc(-c2ccc(OC)cc2)cc1)C(=O)O)N(C)C(=O)[C@@H](c1ccc(OCc2ccc(Cl)c(Cl)c2)cc1)O3 : provide Emax 39

Return reported Emax. Input compound: N#Cc1ccc(-c2ccc(C[C@H](NC(=O)[C@@H]3Cc4cc5c(cc4CN3Cc3ccccn3)OC(c3ccc(OCc4ccc(Cl)c(Cl)c4)cc3)C(=O)N5)C(=O)O)cc2)cc1 (some centres unmarked) 56

Give Emax for N#Cc1ccc(-c2ccc(C[C@H](NC(=O)[C@@H]3Cc4cc5c(cc4CN3C(=O)C3CCC3)OC(c3ccc(OCc4ccc(Cl)c(Cl)c4)cc3)C(=O)N5)C(=O)O)cc2)cc1 (some centres unmarked) 61
